# experimentalTarget: Bcat-Halo (UniProt P35222)
# Sequence (P35222 whole entry): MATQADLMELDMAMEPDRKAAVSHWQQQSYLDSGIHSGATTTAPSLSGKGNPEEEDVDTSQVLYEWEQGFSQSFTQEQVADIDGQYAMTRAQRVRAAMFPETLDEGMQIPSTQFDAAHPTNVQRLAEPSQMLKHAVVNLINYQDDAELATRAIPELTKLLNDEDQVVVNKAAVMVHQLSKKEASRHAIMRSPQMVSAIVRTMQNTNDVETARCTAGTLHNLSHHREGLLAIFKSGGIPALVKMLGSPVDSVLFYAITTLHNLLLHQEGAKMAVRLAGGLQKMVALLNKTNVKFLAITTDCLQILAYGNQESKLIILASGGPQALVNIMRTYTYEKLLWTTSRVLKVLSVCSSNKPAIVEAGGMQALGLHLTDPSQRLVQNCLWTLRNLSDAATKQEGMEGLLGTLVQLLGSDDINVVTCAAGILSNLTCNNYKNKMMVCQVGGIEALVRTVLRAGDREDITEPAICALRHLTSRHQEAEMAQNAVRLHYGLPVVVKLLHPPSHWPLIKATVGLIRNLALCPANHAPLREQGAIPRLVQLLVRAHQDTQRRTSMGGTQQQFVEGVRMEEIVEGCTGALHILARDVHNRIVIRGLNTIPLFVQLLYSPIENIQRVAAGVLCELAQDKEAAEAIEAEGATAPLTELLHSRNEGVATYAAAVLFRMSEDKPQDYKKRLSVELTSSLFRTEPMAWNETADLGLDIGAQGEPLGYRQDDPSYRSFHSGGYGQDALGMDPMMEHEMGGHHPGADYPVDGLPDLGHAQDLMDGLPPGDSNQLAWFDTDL
# measurementDescription: NanoBRET Abs IC50, HEK293 cells, Bcat-Halo / TCF4-Luc
Starred links: 1 amine or outer side, 2 acyl side, 3 side chain; linkers in the order of their positions; H or OH if unused. Positions of bridges follow the written chain, without caps; N, C: chain ends. Non-standard residues stand in square brackets, D forms with d. Primed or numbered codes have the meaning given here. PyrS2″ = (S)-3-amino-1-((pent-4-en-1-yloxy)carbonyl)pyrrolidine-3-carboxylic acid (stapling residue), C=CCCCOC(=O)N1CC[C@@](N[*:1])(C(=O)[*:2])C1; B5(4) = 2,2-bis(4-pentenyl)glycine = 2-amino-2-(pent-4-en-1-yl)hept-6-enoic acid (stitching residue), C=CCCCC(CCCC=C)(N[*:1])C(=O)[*:2]; (NMe2)GlnR″ = [NMe2]GlnR: N5,N5-dimethyl-L-glutamine, CN(C)C(=O)CC[C@H](N[*:1])C(=O)[*:2]; (NMe2)GlnR = N5,N5-dimethyl-L-glutamine, CN(C)C(=O)CC[C@H](N[*:1])C(=O)[*:2]; Phe(3-COOH) = N[C@@H](Cc1cccc(C(=O)O)c1)C(=O)O; 2Nal = N[C@@H](Cc1ccc2ccccc2c1)C(=O)O; Bta = N[C@@H](Cc1csc2ccccc12)C(=O)O; αAllylPro = C=CC[C@@]1(C(=O)O)CCCN1; tBuAla = CC(C)(C)C[C@H](N)C(=O)O; 3Thi = N[C@@H](Cc1ccsc1)C(=O)O; 2F3MeF″ = Phe derivative
metricName: IC50 (µM)
Give bare numbers, in µM.

Reference set, count: 5
binder	measureUnit	IC50
Ac-[αAllylPro]D[tBuAla][B5(4)]D[Phe(3-COOH)]QAFV[PyrS2″][3Thi][RbMe2NapA]A-NH2 (staple 1-4, 4-11) [I-2312]	µM	5.2
Ac-[αAllylPro]D[tBuAla][B5(4)]D[Phe(3-COOH)][(NHEt)GlnR]AFV[PyrS2″][3Thi][Bta]A-NH2 (staple 1-4, 4-11) [I-2302]	µM	2.5
Ac-[αAllylPro]D[tBuAla][B5(4)]D[Phe(3-COOH)][(NMe2)GlnR″]AFL[PyrS2″][2F3MeF″][Bta][(NMe2)GlnR″]-NH2 (staple 1-4, 4-11) [I-2300]	µM	1.2
Ac-[αAllylPro]D[tBuAla][B5(4)]D[Phe(3-COOH)][(NMe2)GlnR]AFV[PyrS2″][3Thi][Bta]A-NH2 (staple 1-4, 4-11) [I-2303]	µM	1.2
Ac-[αAllylPro]D[tBuAla][B5(4)]D[Phe(3-COOH)]QAFV[PyrS2″][3Thi][2Nal]A-NH2 (staple 1-4, 4-11) [I-2310]	µM	8.9

Memo: Ac-[αAllylPro]D[tBuAla][B5(4)]D[Phe(3-COOH)][(NHEt)GlnR]AFL[PyrS2″][2F3MeF″][Bta][(NHEt)GlnR]-NH2 (staple 1-4, 4-11) [I-2299] , reported IC50: 5.2
